system: NCI-H460 lung; assay: NCI-60 one-dose screen, 48 h (100 = growth as untreated, 0 = no growth, -100 = all killed); conditions: 10 µM unless noted
This is part of a sample that, as a whole, favours compounds with a hit. Of some 83,000 tested, about 20% had one in any assay.
property.measured: growth (%)
Report the figure in % without appending any unit label.

Guide cases for growth, answers given:
- compound: "CCN1C(=O)N(CC)C2C1NN=C1SCC(=O)N12 (stereo not drawn)"
  unit.spec: "%"
  growth: 103
- compound: "N#Cc1nc(-c2ccc(F)cc2)oc1S(=O)(=O)N1CCN(c2ccc(F)cc2)CC1"
  unit.spec: "%"
  growth: 102
- compound: "C=C1C(=O)O[C@H]2[C@H]1CC/C(COC(=O)NCCCCCCCCNC(=O)OC/C1=C/CC[C@@]3(C)O[C@H]3[C@H]3OC(=O)C(=C)[C@@H]3CC1)=C\\CC[C@@]1(C)O[C@@H]21"
  unit.spec: "%"
  growth: -51.1
- compound: "CCCCCCCCNc1cc2c3c(c1)CCCN3CCC2"
  unit.spec: "%"
  growth: 16.9
- compound: "C=C1C(=O)O[C@H]2[C@H]1CC/C(Cn1cc(-c3cc(C(F)(F)F)cc(C(F)(F)F)c3)nn1)=C\\CC[C@@]1(C)O[C@@H]21"
  unit.spec: "%"
  growth: -59.2
- compound: "C[C@H]1[C@H](C)CC[C@]2(C(=O)O)CC[C@]3(C)C(=CC[C@@H]4[C@@]5(C)C[C@@H](Cc6cn([C@@H]7O[C@H](CO)[C@@H](O)[C@H](O)[C@H]7O)nn6)[C@H](O)C(C)(C)[C@@H]5CC[C@]43C)[C@H]12"
  unit.spec: "%"
  growth: 107

query: Answer with the recorded growth of COCC[C@H]1CCC/C=C/[C@@H]2C[C@H](O)C[C@H]2[C@H](O)/C=C/C(=O)O1 only.
result: 15.1

query: Give recorded growth. N#Cc1c(N2CCOCC2)nc(=S)[nH]c1-c1ccccc1
result: 68.9

query: Fill in growth for record N=c1sc(Cc2cc(Cl)ccc2Cl)cn1CC(=O)c1ccccc1
result: 20.3

query: State its growth for this compound: O=C1/C(=C/c2ccc(C(F)(F)F)cc2)COc2ccc(O)c(O)c21
result: 25.8

query: Query growth for CC(C)(CO)N(CCO)CCO
result: 110

query: Indicate the recorded growth value for this compound: O=C(CN1C(=O)NC2NC(=O)NC21)N/N=C/c1ccc(Cl)cc1Cl (stereo not drawn)
result: 105

query: Input CCOC(=O)c1c(C)nn(CC(O)c2ccccc2)c1NC(=O)Nc1cccc(F)c1 (stereo not drawn) , output reported growth.
result: 93.6

query: Assign growth to the following record: COC(=O)c1nc(-c2ccccc2)oc1S(=O)(=O)N1CCC(C(N)=O)CC1
result: 102

query: Using known records, supply growth for Cc1ncc(C(=O)Nc2ccc(CN3CCN(C)CC3)c(C(F)(F)F)c2)cc1C#Cc1cnc(N)c2cnccc12
result: -53.9

query: Input CC[C@]12C=CCN3CC[C@@]4(c5ccc(OC)cc5N(C)[C@H]4[C@@](O)(C(=O)OC)[C@@H]1OC(=O)CCCN1CCOCC1)[C@@H]32 , output reported growth.
result: 111

query: Give me measured growth, please, for this compound: COc1ccc2nc3ccccc3c(NCc3ccccc3)c2c1
result: 6.31

query: Return growth (reported value) for this compound: O=C(Cn1nnc2ccccc21)N/N=C/c1ccccc1F
result: 104

====

tested on: DU-145 prostate; test: NCI-60 one-dose screen, 48 h (100 = growth as untreated, 0 = no growth, -100 = all killed); details: 10 µM unless noted
The panel holds about 83,000 compounds, 20% with a hit somewhere; the sample as a whole holds those more often.
Class Yes: growth at least 40%. Class No: growth below 40%.

Worked examples, 5 compounds total:
- compound: "COc1cc(-c2nc(SCCC(C)C)nc(N3CCOCC3)c2C#N)cc(OC)c1OC"
  qualitative.label: "Yes"
- compound: "CCN(CC)CCCNCc1cc(-c2ccccc2)nc2cc(Cl)ccc12"
  qualitative.label: "Yes"
- compound: "COc1cc(N2C(=O)[C@H](c3ccccc3)C2c2ccc(SC)cc2)cc(OC)c1OC (stereo not given in full)"
  qualitative.label: "No"
- compound: "COc1ccc2c(c1)c(-c1nonc1-c1cn(C)c3ccc(OC)cc13)cn2C"
  qualitative.label: "Yes"
- compound: "COCC[C@H]1CCC/C=C/[C@@H]2C[C@H](O)C[C@H]2[C@H](O)/C=C/C(=O)O1"
  qualitative.label: "No"

query: Form field: growth at least 40%? Entry: CCOC(=O)c1cn2ncnc(Oc3ccc(NC(=O)NC4CC4)c(F)c3)c2c1C
result: Yes

query: Decide: is the reported value of growth for O=[N+]([O-])/C(=C\c1ccco1)c1ccccc1Cl equal to or greater than 40%?
result: Yes

====

system: SK-OV-3 ovarian; test: NCI-60 one-dose screen, 48 h (100 = growth as untreated, 0 = no growth, -100 = all killed); settings: 10 µM unless noted
About 83,000 compounds went through this panel and 20% of them were active in at least one assay; those are over-represented in the sample as a whole.
growth listing for selected compounds.
The answer is to be given in %; state only the numeric part.

Reference set, count: 2
- compound: "CCN(CC)CCOc1nc2c3ccc(Cl)cc3nn2c2ccccc12"
  unit.spec: "%"
  growth: 56
- compound: "S=c1ssnc1-c1cccs1"
  unit.spec: "%"
  growth: 98.4

query: Tell me growth reported for O=C(c1ccc(F)c(Cl)c1)N1c2ccccc2Sc2ccccc21
result: 89.2

query: In one line, give reported growth of the entry N#Cc1c(Nc2ccc(F)cc2)n[nH]c1-c1cccs1 .
result: 115

query: Given C=CCn1c(SCC(=O)Nc2ccc(C(=O)/C=C/c3ccc(OC)cc3)cc2)nnc1-c1ccccc1 , respond with its growth.
result: 106

query: Query growth for CCC(C)Nc1ccc(NC(C)CC)cc1 (configuration not stated)
result: 98.4

query: Indicate the recorded growth value for this compound: O=C(Cn1nnc2ccccc21)N/N=C/c1ccccc1F
result: 98.2

query: Name the recorded growth of the compound listed here: Oc1c(I)cc(-c2nc3ccccc3s2)cc1CN(Cc1ccccn1)Cc1ccccn1
result: 18.5

query: Answer with the recorded growth of O[C@@H](c1cc(C(F)(F)F)nc2c(C(F)(F)F)cccc12)[C@H]1CCCCN1 only.
result: 82.7

query: Fill in reported growth for this entry: CO[C@H](C(=O)[C@@H](O)[C@@H](C)O)[C@@H]1Cc2cc3cc(O[C@H]4C[C@@H](O[C@H]5C[C@@H](O)[C@H](O)C(C)O5)[C@H](O)C(C)O4)c(C)c(O)c3c(O)c2C(=O)[C@H]1O[C@H]1C[C@@H](O[C@H]2C[C@@H](O[C@H]3C[C@@H](OC)[C@H](O)C(C)O3)[C@@H](O)C(C)O2)C(O)(O)C(C)O1 (some centres not stated)
result: 14.6

query: Entry CN1CCN(Cc2ccc(NC(=O)c3cncc(C#Cc4cncc5ncccc45)c3)cc2C(F)(F)F)CC1 needs its growth filled in; supply it.
result: -3.03

query: Given the compound CCCCCn1sc(=O)n(Cc2ccc(CNC(=O)OCc3ccc4c(Cl)cc(Cl)c(O)c4n3)cc2)c1=O , write its reported growth.
result: 96

query: State its growth for this compound: CCOC(=O)c1c(-c2ccccc2)n2c(=O)cc(C)c3c(O)c(O)cc1c32
result: 76.3

query: Please supply the value of reported growth for the item c1ccc(CCc2ccccc2-c2cc(-c3ccccc3)on2)cc1
result: 83.1

query: Identify measured growth corresponding to COc1ccc(NC(=O)c2sc3nc4c(cc3c2N)CCCC4)cc1
result: 39.4

query: Specify growth for CCOC(=O)c1c(C)nc2ccccc2c1/C=C/c1ccc(OC)cc1 and stop.
result: 76.1

query: Query growth for CCN(CC)CCOc1ccc(Nc2ncc3cc(-c4ccc(O)cc4)c(=O)n(C)c3n2)cc1
result: 53

query: Kindly indicate its recorded growth. Item: CC/C=C\C/C=C/C=C1/C(=O)C=C[C@@H]1C/C=C\CCCC(=O)OC
result: 110

query: Specify reported growth for the compound shown: O=C(c1ccc(Cl)cc1Cl)N1c2ccccc2Sc2ccccc21
result: 69.1

query: Could you please provide reported growth for Cc1cccc(-n2c(C)nc3ccc(N4CCCNC4=O)cc3c2=O)c1 ? Thanks!
result: 114

====

We begin with a simple list: items and their reported growth.
system: ACHN renal; test: NCI-60 one-dose screen, 48 h (100 = growth as untreated, 0 = no growth, -100 = all killed); conditions: 10 µM unless noted
The panel holds about 83,000 compounds, 20% with a hit somewhere; the sample as a whole holds those more often.
Number only, in %; omit the unit.

Field: example entries. Status: answers known.
- molecule: "CN(CCC#N)c1ccc(/C=C2\\NC(=O)NC2=O)cc1"
  unit.spec: "%"
  growth: 97.9
- molecule: "COc1ccc(/C=C/C(=O)c2cc3c(N)c(C(=O)Nc4ccc(OC)cc4)sc3nc2C)cc1"
  unit.spec: "%"
  growth: 42.6
- molecule: "C=CC(=O)NCCOc1cccc(Nc2cc(NCCCNC(=O)C3CCC3)c(Br)cn2)c1"
  unit.spec: "%"
  growth: 7.24

query: For the molecule COP(=O)(OC)c1nnn(-c2cccc([N+](=O)[O-])c2)c1C , give its measured growth value.
result: 106

query: Return reported growth. Input molecule: CCCC(O)Cn1ncc(C(=O)OCC)c1NC(=O)NCc1cccc(F)c1 (stereo not given)
result: 96.6
